Each recorded value in this set is attributed to BindingDB's records for doi:10.1016/s0960-894x(00)00605-3.

I'd be grateful if you could share measured Ki for these entries.
Target: Histone deacetylase (Eimeria tenella)
Assay: Binding affinity towards HDAC enzyme derived from Eimeria tenella protozoa

// known answers, use as guide
CCC(=O)CCCCC[C@@H]1NC(=O)[C@H]2CCCCN2C(=O)[C@H]([C@@H](C)CC)NC(=O)[C@H](c2cnc3ccccc3c2Cl)NC1=O :: 50 nM
CCC(=O)CCCCC[C@@H]1NC(=O)[C@H]2CCCCN2C(=O)[C@H]([C@@H](C)CC)NC(=O)[C@@H](c2cnc3ccccc3c2O)NC1=O :: 250 nM
CCC(=O)CCCCC[C@@H]1NC(=O)[C@H]2CCCCN2C(=O)[C@H]([C@@H](C)CC)NC(=O)[C@H](c2cn(CC)c3ccccc3c2=O)NC1=O :: 70 nM
CCC(=O)CCCCC[C@@H]1NC(=O)[C@H]2CCCCN2C(=O)[C@H]([C@@H](C)CC)NC(=O)[C@H](c2cn(OC)c3ccccc3c2=O)NC1=O :: 30 nM
CCCCCCCCCCC(=O)C[C@@H]1NC(=O)[C@H](CCCCCC(=O)CC)NC(=O)[C@H]2CCCCN2C(=O)[C@H]([C@@H](C)CC)NC1=O :: > 1000 nM

Fill in Ki for each of the 2 compounds listed.
1. CCC(=O)CCCCC[C@@H]1NC(=O)[C@H]2CCCCN2C(=O)[C@H]([C@@H](C)CC)NC(=O)[C@H](c2cnc3ccccc3c2O)NC1=O
2. CCC(=O)CCCCC[C@@H]1NC(=O)[C@H]2CCCCN2C(=O)[C@H]([C@@H](C)CC)NC(=O)[C@H](c2cnc3ccccc3c2N2CCCCC2)NC1=O

(A)
1. 10 nM
2. 20 nM
